# Tested on: HCT-116 colon
# ASSAY: NCI tumour cell line growth inhibition, 48 h; in the data active = GI50 below about 0.43 µM; inactive = the rest
Returns: one label drawn from T = active, F = inactive

Take a look at these entries with their results.
SMILES_NOTATION | CLASS_ASSIGNMENT
COc1cc2c(c(OC)c1OC)-c1c(c3ccc([N+](=O)[O-])cc3c(=O)n1CCCBr)C2=O | F
COc1cc2c(cc1O)c(=O)n(CCN(C)C)c1c3cc4c(cc3ncc21)OCO4 | T
Cc1ccc(-c2nc(/C=N/Nc3cc(C)nc4ccc(Br)cc34)c(C)o2)cc1 | F

Now look at this one.
Request: Call for entry CCn1c(SCC(=O)Nc2cc(C(F)(F)F)ccc2Cl)nc2ccccc2c1=O :
Response: F
